# Experimental Target: UniProt P08913
# Sequence (P08913 whole entry): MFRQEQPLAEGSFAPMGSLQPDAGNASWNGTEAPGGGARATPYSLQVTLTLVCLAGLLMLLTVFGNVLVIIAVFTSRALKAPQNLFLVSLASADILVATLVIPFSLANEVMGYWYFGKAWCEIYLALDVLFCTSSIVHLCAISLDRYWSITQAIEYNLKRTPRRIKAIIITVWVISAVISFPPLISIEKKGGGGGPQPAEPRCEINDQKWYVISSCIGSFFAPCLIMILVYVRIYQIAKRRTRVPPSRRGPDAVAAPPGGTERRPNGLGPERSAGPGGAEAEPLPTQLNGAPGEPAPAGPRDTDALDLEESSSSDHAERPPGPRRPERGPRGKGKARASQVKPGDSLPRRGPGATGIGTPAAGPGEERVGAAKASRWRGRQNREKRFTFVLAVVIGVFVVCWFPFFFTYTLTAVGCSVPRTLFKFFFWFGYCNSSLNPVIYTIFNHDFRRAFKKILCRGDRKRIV
# Type: functional, cell-based
Attribute Measured: AC50

As a guide, the following entries are already answered.
                                   compound  reported_result
0  CN(C)CCOC(c1ccc(Cl)cc1)c1ccccn1 (stereo not drawn)          > 30 µM
1  OCC(CO)N[C@H]1C[C@](O)(CO)[C@@H](O)[C@H](O)[C@H]1O          > 30 µM

AC50 recorded for this compound, `Cc1cnc(Nc2ccc(OCCN3CCCC3)cc2)nc1Nc1cccc(S(=O)(=O)NC(C)(C)C)c1` , is > 10 µM

Measured AC50, CC(=O)SCC(Cc1ccccc1)C(=O)NCC(=O)OCc1ccccc1 (stereo not drawn) : > 30 µM

Per the record, `CN(C)CCC=C1c2ccccc2CCc2ccccc21` has AC50 of 9.1 µM

What the record says about `CC(C)/N=c1\cc2n(-c3ccc(Cl)cc3)c3ccccc3nc-2cc1Nc1ccc(Cl)cc1` : AC50 is > 30 µM

Summary for this compound, `O=C(O)[C@H]1/C(=C/CO)O[C@@H]2CC(=O)N21` : AC50 is > 30 µM

Documented AC50 of CCOC(=O)O[C@]1(C(=O)COC(=O)CC)CC[C@H]2[C@@H]3CCC4=CC(=O)C=C[C@]4(C)[C@H]3[C@@H](O)C[C@@]21C [PREDNICARBATE] : > 10 µM

Kindly note the recorded AC50 for `O=C(O)c1nn(Cc2ccc(Cl)cc2Cl)c2ccccc12` , which is > 30 µM

Measured AC50, `NS(=O)(=O)c1ccc(N2CCCCS2(=O)=O)cc1` : > 30 µM

Just so you know, measured AC50 for `CNCCc1ccccn1` came out at > 30 µM

---

# Experimental Target: Amine oxidase [flavin-containing] A (Homo sapiens, UniProt P21397); further: assay procedure not described here
# Sequence (P21397 whole entry): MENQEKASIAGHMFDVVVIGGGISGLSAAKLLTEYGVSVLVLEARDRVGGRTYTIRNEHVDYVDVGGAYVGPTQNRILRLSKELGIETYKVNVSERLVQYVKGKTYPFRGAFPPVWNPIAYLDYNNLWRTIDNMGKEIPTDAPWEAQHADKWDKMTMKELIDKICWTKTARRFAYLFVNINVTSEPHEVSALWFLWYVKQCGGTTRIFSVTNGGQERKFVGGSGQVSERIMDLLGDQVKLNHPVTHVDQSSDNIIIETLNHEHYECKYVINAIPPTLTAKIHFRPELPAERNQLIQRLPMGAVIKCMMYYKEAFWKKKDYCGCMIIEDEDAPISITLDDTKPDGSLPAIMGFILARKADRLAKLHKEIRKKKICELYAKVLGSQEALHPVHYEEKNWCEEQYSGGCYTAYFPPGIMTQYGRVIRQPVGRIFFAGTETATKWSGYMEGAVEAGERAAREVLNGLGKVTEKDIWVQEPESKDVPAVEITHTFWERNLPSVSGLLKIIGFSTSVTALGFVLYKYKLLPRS
# Format: functional
Attribute Measured: AC50

In [3]: df
Out[3]:
                                   compound  reported_result
0       c1cnc2cc3c(cc2n1)[C@@H]1CNC[C@H]3C1          > 30 µM
1  CC1CC(OC(=O)C(O)c2ccccc2)CC(C)(C)C1 (stereo not given) [CYCLANDELATE]          > 10 µM
2  CC(=O)Oc1cccc2c1C(=O)c1c(OC(C)=O)cc(C(=O)O)cc1C2=O          > 30 µM
3  COc1ccc(C(Cl)=C(c2ccc(OC)cc2)c2ccc(OC)cc2)cc1          > 30 µM
4  CC(=O)OCC1=C(C(=O)O)N2C(=O)[C@@H](NC(=O)CSc3ccncc3)[C@H]2SC1          > 10 µM

Sure, the documented AC50 for CC(C)NCC(O)COc1ccc(CC(N)=O)cc1 (stereo not given) is > 30 µM

Summary for this compound, `CO/N=C(\C(=O)N[C@@H]1C(=O)N2C(C(=O)[O-])=C(C[n+]3ccc(N)n3CCO)CS[C@H]12)c1csc(N)n1` : AC50 is > 30 µM

get_value(item= `C=CC1=C(C(=O)O)N2C(=O)[C@@H](NC(=O)/C(=N\O)c3csc(N)n3)[C@H]2SC1` , readout=AC50) returns > 10 µM

The value of AC50 measured for the compound `CCCCCCCC(=O)CC[C@@H]1[C@@H](C/C=C\CCCC(=O)O)[C@@H](O)C[C@H]1O` turned out to be > 30 µM

Entry under test: `CC[N+](CC)(CCNC(=O)C(=O)NCC[N+](CC)(CC)Cc1ccccc1Cl)Cc1ccccc1Cl` . Its AC50 was > 30 µM

Record `O=C(O)c1nn(Cc2ccc(Cl)cc2Cl)c2ccccc12` , field AC50: > 30 µM

Input CCC(=O)[C@@]1(C)[C@H](C)C[C@H]2[C@@H]3CCC4=CC(=O)C=C[C@]4(C)[C@H]3[C@@H](O)C[C@@]21C [RIMEXOLONE] . Output AC50: > 10 µM

Item: `CC(C)/N=c1\cc2n(-c3ccc(Cl)cc3)c3ccccc3nc-2cc1Nc1ccc(Cl)cc1` | AC50: > 30 µM

# compound `C=C(c1ccccc1OCc1cccc(Cl)c1)n1ccnc1` ; its AC50 = > 10 µM

# compound OCCOCCN1CCN(C(c2ccccc2)c2ccc(Cl)cc2)CC1 (stereo not given) [HYDROXYZINE] ; its AC50 = > 10 µM

compound `N=C(N)NC(=O)Cc1c(Cl)cccc1Cl` , AC50 observed: 6.88 µM

---

# Experimental Target: D(3) dopamine receptor (Homo sapiens, UniProt P35462); further: assay procedure not described here
# Sequence (P35462 whole entry): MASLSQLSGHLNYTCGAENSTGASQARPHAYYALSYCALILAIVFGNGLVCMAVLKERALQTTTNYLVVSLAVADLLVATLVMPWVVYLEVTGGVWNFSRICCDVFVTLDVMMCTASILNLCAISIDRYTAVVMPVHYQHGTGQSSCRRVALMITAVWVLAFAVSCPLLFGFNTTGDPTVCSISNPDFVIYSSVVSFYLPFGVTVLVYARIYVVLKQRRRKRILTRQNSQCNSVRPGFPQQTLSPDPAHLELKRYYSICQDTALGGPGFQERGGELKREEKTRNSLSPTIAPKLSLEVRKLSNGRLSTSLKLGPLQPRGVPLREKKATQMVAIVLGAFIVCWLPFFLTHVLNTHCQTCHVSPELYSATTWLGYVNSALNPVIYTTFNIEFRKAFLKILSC
Attribute Measured: AC50

Example compounds with recorded AC50:
>>> print(df.to_string())
                                   compound  attribute_measured  reported_result
0                CCC1(c2ccccc2)C(=O)NCNC1=O                AC50          > 30 µM
1               CN(C)CCN(Cc1ccccc1)c1ccccn1                AC50          > 10 µM
2  OCC(O)COc1ccc(Cl)cc1 (centres undefined)                AC50          > 30 µM

The compound `CCCCCCCC(=O)CC[C@@H]1[C@@H](C/C=C\CCCC(=O)O)[C@@H](O)C[C@H]1O` showed AC50 equal to > 30 µM

---

# Experimental Target: Adenosine receptor A3 (Homo sapiens, UniProt P0DMS8); further: assay procedure not described here
# Sequence (P0DMS8 whole entry): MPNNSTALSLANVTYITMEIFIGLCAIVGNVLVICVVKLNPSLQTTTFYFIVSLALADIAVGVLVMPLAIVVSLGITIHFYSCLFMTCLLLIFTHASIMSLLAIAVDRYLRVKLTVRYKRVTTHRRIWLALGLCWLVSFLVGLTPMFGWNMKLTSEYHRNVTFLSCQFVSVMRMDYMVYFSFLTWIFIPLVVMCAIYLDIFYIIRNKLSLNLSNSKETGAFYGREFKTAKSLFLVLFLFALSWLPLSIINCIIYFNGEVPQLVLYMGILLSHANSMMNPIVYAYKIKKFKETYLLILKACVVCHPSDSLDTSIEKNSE
Attribute Measured: AC50

As a guide, the following entries are already answered.
>>> print(df.to_string())
                                   compound  attribute_measured  reported_result
0  CCN(CC)Cc1nccn1-c1ccc([N+](=O)[O-])cc1C(=O)c1ccccc1Cl [NIZOFENONE]                AC50          > 30 µM
1  CNC(=O)c1cnn(-c2nc(N)c3ncn([C@@H]4O[C@H](CO)[C@@H](O)[C@H]4O)c3n2)c1 [REGADENOSON ANHYDROUS]                AC50           3.7 µM
2  CCOC(=O)Nc1ccc(NCc2ccc(F)cc2)nc1N [FLUPIRTINE]                AC50            21 µM
3    CCN(CC)CC(=O)Nc1c(C)cccc1C [LIDOCAINE]                AC50          > 30 µM

# evaluate next
Per the reported Adenosine receptor A3 (Homo sapiens, UniProt P0DMS8) data, COc1cc2c(cc1OC)C1CC(=O)C(CC(C)C)CN1CC2 (centres undefined) [TETRABENAZINE] has AC50 of > 30 µM

---

# collection of AC50 values tested on Estrogen receptor beta (Homo sapiens, UniProt Q92731); further: assay procedure not described here
# Sequence (Q92731 whole entry): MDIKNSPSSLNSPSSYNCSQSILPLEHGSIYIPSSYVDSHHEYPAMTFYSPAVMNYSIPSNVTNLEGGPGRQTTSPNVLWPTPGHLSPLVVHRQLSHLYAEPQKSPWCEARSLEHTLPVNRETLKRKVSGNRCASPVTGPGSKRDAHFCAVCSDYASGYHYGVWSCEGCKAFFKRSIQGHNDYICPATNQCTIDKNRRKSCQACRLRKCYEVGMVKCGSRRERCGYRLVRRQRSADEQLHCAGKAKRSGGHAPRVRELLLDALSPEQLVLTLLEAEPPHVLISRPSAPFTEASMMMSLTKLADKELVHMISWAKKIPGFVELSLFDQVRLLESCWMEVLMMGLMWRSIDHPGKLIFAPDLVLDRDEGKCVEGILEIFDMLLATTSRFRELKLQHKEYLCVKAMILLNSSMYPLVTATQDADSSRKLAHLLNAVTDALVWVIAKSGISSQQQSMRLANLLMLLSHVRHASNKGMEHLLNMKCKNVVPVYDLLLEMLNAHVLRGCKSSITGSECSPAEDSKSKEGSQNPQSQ

Look over these answered cases.
>>> df
                                   compound  reported_result
0  CN1C2CCCC1CC(NC(=O)c1nn(C)c3ccccc13)C2 (centres undefined)          > 30 µM
1  N=C(N)NC(=O)c1nc(Cl)c(N)nc1N [AMILORIDE]          > 30 µM
2  O=C1CN=C(c2ccccc2Cl)c2cc([N+](=O)[O-])ccc2N1          > 30 µM

The reported AC50 value, Estrogen receptor beta (Homo sapiens, UniProt Q92731), for `CC(=O)Oc1ccccc1C(=O)O` reads > 30 µM

# lookup: `CN1C(=O)CN=C(c2ccccc2F)c2cc([N+](=O)[O-])ccc21` on Estrogen receptor beta (Homo sapiens, UniProt Q92731), AC50 = > 30 µM

The measured AC50 that `CCN(CC)CC(=O)Nc1c(C)cccc1C` showed for Estrogen receptor beta (Homo sapiens, UniProt Q92731) is > 30 µM

Record `Oc1cc(O)c2c(c1)O[C@H](c1ccc(O)c(O)c1)[C@@H](O)C2` has Estrogen receptor beta (Homo sapiens, UniProt Q92731) AC50 equal to > 30 µM

So the reported AC50 for CC(NC(C)(C)C)C(=O)c1cccc(Cl)c1 (centres undefined) , on Estrogen receptor beta (Homo sapiens, UniProt Q92731), turned out to be > 30 µM

AC50 of CCOC(=O)C1=C(C)NC(C)=C(C(=O)OC)C1c1cccc(Cl)c1Cl (centres undefined) , assay on Estrogen receptor beta (Homo sapiens, UniProt Q92731), is > 30 µM
